Notes on pIC50 obtained with Urease (Canavalia ensiformis, UniProt P07374).
Sequence (P07374 whole entry): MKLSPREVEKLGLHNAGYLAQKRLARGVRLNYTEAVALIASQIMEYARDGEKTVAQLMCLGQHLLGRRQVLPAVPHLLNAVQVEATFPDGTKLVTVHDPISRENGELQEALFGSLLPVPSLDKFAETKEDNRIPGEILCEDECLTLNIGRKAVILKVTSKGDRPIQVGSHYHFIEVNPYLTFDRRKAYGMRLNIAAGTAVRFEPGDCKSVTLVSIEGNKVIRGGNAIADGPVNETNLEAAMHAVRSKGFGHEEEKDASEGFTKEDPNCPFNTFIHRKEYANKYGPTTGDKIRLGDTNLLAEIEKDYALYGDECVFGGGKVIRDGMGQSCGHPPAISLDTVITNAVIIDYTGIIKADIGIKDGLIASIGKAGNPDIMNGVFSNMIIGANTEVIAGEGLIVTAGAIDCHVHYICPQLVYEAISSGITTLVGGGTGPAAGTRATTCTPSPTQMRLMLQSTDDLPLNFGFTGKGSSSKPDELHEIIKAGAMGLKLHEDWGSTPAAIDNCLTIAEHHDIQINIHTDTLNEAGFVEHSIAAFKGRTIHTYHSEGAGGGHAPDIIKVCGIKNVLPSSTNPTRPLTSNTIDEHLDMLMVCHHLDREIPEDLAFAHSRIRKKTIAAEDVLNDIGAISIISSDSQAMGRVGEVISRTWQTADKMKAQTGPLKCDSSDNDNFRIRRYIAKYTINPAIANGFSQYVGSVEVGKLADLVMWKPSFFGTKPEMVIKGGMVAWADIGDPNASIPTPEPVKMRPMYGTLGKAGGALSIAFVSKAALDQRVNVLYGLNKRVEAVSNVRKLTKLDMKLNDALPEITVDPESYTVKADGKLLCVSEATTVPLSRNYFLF
Please report pIC50 as the negative decimal logarithm of the molar concentration, giving only the number.

• CC(=O)NO [ACETOHYDROXAMIC ACID] = 4.76

// pIC50 lookup, key: O=C1c2cc(O)cc3oc(-c4ccc(O)cc4)c(c23)-c2cc(O)cc(O)c2C1c1ccc(O)cc1 (configuration not stated) [SHOREAPHENOL]
3.90

---

System: Colletotrichum lagenaria
ASSAY OVERVIEW: Antifungal activity against Colletotrichum lagenarium by MTT assay
Type: functional
// reported MIC per item

* Oc1ccc([C@@H]2c3cc(O)ccc3[C@@H]3c4c(O)cc(O)cc4[C@@H]2c2c(O)cc(O)c4c2[C@@H]3[C@@H](c2ccc(O)cc2)[C@@H]4c2cc(O)cc(O)c2)cc1 [VATICANOL G] | > 50 µg/mL

// MIC lookup, key: Oc1ccc([C@@H]2c3c(O)cc(O)cc3[C@@H]3c4c(cc(O)c5c4[C@H]2[C@H](c2ccc(O)cc2)[C@H]5c2cc(O)cc(O)c2)O[C@H]3c2ccc(O)cc2)cc1 [VATICANOL A]
> 50 µg/mL

Now this one: O=C1C=C2O[C@@H](c3ccc(O)cc3)[C@H]3C2=C(C1=O)[C@H]1c2c(cc(O)cc2[C@@H]2c4c(cc(O)cc43)O[C@H]2c2ccc(O)cc2)O[C@@H]1c1ccc(O)cc1 [HOPEANOLIN]
10.6 µg/mL

Now this one: O=C1c2cc(O)cc3oc(-c4ccc(O)cc4)c(c23)-c2cc(O)cc(O)c2C1c1ccc(O)cc1 (centres undefined) [SHOREAPHENOL]
> 50 µg/mL
